testSystem: human TGR5 receptor (Homo sapiens)
Sequence (Q8TDU6 1-330): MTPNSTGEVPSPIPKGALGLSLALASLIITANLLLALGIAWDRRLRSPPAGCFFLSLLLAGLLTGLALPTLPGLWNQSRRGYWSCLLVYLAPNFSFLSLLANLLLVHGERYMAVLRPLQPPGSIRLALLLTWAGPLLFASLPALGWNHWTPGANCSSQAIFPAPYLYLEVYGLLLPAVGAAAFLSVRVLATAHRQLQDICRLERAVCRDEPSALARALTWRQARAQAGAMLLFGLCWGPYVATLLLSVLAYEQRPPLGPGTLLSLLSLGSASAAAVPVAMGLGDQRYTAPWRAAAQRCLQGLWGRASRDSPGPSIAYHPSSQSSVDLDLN
methodNotes: Human TGR5 cAMP production assay (hTGR5-CHO cells, DiscoveRx cAMP XS+ kit)
conditionSummary: luminescent cAMP assay, read-out: Human TGR5 Lum. cAMP Activity (EC50)
pEC50: −log10 of the molar value.
The following compounds are shown together with reported pEC50 values.

Some compounds with known pEC50 results, for comparison:
> print(dat)
                                   compound                          testsystem  readouttype  measuredvalue
1  CN(C)CCC1CCN(c2cc(N3CCC[C@H]3C(=O)NCCc3ccc(C#N)cc3)nc(C(F)(F)F)n2)CC1 [Compound 21]  human TGR5 receptor (Homo sapiens)        pEC50         > 7.00
2  CCOC(=O)CCNC(=O)NCCC1CCN(c2cc(N3CCC[C@H]3C(=O)NCCc3ccc(C#N)cc3)nc(C(F)(F)F)n2)CC1 [Compound 55]  human TGR5 receptor (Homo sapiens)        pEC50         > 7.00
3  O=C(CCCC1CCN(c2cc(N3CCC[C@H]3C(=O)NCCc3ccc(C(F)(F)F)cc3)nc(C(F)(F)F)n2)CC1)NCCNS(=O)(=O)c1ccc(C(=O)O)cc1 [Compound 94]  human TGR5 receptor (Homo sapiens)        pEC50         > 7.00
4  N#CCCC1CCN(c2cc(N3CCC[C@@H](C(=O)NCCc4ccc(C#N)cc4)C3)nc(C(F)(F)F)n2)CC1 [Compound 311]  human TGR5 receptor (Homo sapiens)        pEC50         > 7.00
5  N#Cc1ccc(CCNC(=O)[C@@H]2CCCN2c2cc(N3CCC(CCNS(=O)(=O)CCNC(=O)NCCC(=O)O)CC3)nc(C(F)(F)F)n2)cc1 [Compound 371]  human TGR5 receptor (Homo sapiens)        pEC50         > 7.00

Now, please, on to the next compound.
Just so you know, measured pEC50 for COc1ccc(Oc2cc(N3CCC[C@H]3C(=O)NCCc3ccc(C#N)cc3)nc(C(F)(F)F)n2)cc1 [Compound 44] came out at 4.52 to 6.00

###

methodNotes: Portal vein versus systemic pharmacokinetics in hepatic portal vein cannulated CD(SD) rats
Type: in vivo
conditionSummary: male, rat, plasma (portal vein blood), Portal Vein bleed, 10 mg/kg oral, read-out: AUC (0→7 h)
readoutType: AUC(0-t) (ng·h/mL)
Report only the number, with the unit ng·h/mL understood.

The reported AUC(0-t) of the molecule N#Cc1ccc(CCNC(=O)[C@@H]2CCN2c2cc(N3CCC(CCNC(=O)NCCC(=O)O)CC3)nc(C(F)(F)F)n2)cc1 [Compound 268] was 49.1
